# System: 883617-216-R-J1-PDC complex spheroids, growth, % test/control;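 further: exposure lasted 7 days after dosing on day 3 of spheroid growth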
# assay.explanation: Anticancer human tumor 883617-216-R-J1-PDC patient-derived bladder carcinoma cell line growth inhibition [AhR]
# condition.parameters: second compound 10 µM; first compound 3.16 µM; hits give low values
measured.quantity: viability, T/C (%)
Lab book: enter the figure in %, no units written.

INPUT: If you can, please state the reported viability, T/C value of COc1cc(Nc2ncc3c(n2)-c2ccc(Cl)cc2C(c2c(F)cccc2OC)=NC3)ccc1C(=O)O + Cc1cncc(-c2nc(NCCc3c[nH]c4ccccc34)c3ncn(C(C)C)c3n2)c1 .
OUTPUT: 56.4

INPUT: If you can, please state the reported viability, T/C value of CC1COCCN1c1cc(C2(S(C)(=N)=O)CC2)nc(-c2ccnc3[nH]ccc23)n1 (stereo not drawn) + CC(CO)NC(=O)c1cc(-c2ccc(Cl)cc2)nn(-c2cnn(C)c2)c1=O .
OUTPUT: 107

We now examine a further compound.
INPUT: If you can, please state the reported viability, T/C value of O=C(c1cc(Cc2n[nH]c(=O)c3ccccc23)ccc1F)N1CCN(C(=O)C2CC2)CC1 + Cc1cncc(-c2nc(NCCc3c[nH]c4ccccc34)c3ncn(C(C)C)c3n2)c1 .
OUTPUT: 49.3

FYI, the data here is from PubChem BioAssay AID1919004.
